# credit: patent US20170165339A1

Each record here notes measured peptide exchange yield.
# Subject of test: HLA-A*02 (human)
# Measurement notes: UV peptide-exchange ELISA, yield grade

| Binder | peptide exchange yield |
| --- | --- |
| GLYERPTAA [GLYERPTAA (SEQ ID NO: 238)] | 20 to 49% |
| SLLDLPLSL [SLLDLPLSL (SEQ ID NO: 245)] | ≥ 75% |

Query: Identify peptide exchange yield associated with the binder VLLSEQGDVKL [VLLSEQGDVKL (SEQ ID NO: 263)]
Response: 20 to 49%

Query: // fetch peptide exchange yield given entry ILGDLSHLL [ILGDLSHLL (SEQ ID NO: 156)]
Response: 50 to 75%
